Numbers sourced from patent US20100184815A1.

Measured target: Gal-4 hPPARα (Homo sapiens, UniProt Q07869)
Construct: Plasmids pGal4-hPPARα, pGal4-hPPARγ, pGal4-hPPARδ and pG5-TK-pGL3 were constructed as previously described by Staels, Bart, et al., Nature 1998 Jun; 25
Sequence (Q07869 200-468 limits assumed): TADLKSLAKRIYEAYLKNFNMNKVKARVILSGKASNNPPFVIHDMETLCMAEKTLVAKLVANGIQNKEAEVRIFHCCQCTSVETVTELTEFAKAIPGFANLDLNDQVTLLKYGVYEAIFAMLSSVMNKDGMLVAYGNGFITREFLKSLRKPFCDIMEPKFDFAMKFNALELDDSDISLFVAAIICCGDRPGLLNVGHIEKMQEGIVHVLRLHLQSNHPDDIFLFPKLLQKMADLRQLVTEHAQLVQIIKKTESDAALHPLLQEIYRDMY
Protocol: Gal4-hPPARα transient transfection reporter assay in Cos cells
Type: cell-based
Reported conditions: luciferase reporter, 24 hours with compound, scale 1-5, read-out: Gal-4 hPPAR α EC50 (scaled number)
# EC50 per record follows

These recorded examples may help you get a feel for the data.
CCCn1c(C(C)OC(=O)c2ccc(SC(C)(C)C(=O)O)cc2)nn(Cc2ccc(C)cc2)c1=O (stereo not drawn) = 1 to 50 nM
CC(C)(Sc1ccc(C(=O)OCCc2cn(Cc3ccc(C(C)(C)C)cc3)nn2)cc1)C(=O)O = 51 to 200 nM
CC(C)(Sc1ccc(C(=O)OCc2cnn(-c3ccc(C(F)(F)F)cc3)c2)cc1)C(=O)O = 1 to 50 nM
Cc1ccc(Cn2cc([C@@H](C)OC(=O)c3ccc(SC(C)(C)C(=O)O)cc3)nn2)cc1 = 1 to 50 nM
CCn1c(COC(=O)c2ccc(OC(C)(C)C(=O)O)cc2)nn(Cc2ccc(C(C)(C)C)cc2)c1=O = 51 to 200 nM
C[C@@H](OC(=O)c1ccc(SC(C)(C)C(=O)O)cc1)c1cn(Cc2ccc(C(F)(F)F)cc2)nn1 = 1 to 50 nM
C[C@H](Cc1cn(Cc2ccc(C(C)(C)C)cc2)nn1)OC(=O)c1ccc(SC(C)(C)C(=O)O)cc1 = 1 to 50 nM
CCCCCCn1c(COC(=O)c2ccc(OC(C)(C)C(=O)O)cc2)nn(Cc2ccc(C)cc2)c1=O = 1 to 50 nM
CCCCCCn1c(COC(=O)c2ccc(SC(C)(C)C(=O)O)cc2)nn(Cc2ccc(C(F)(C(F)(F)F)C(F)(F)F)cc2)c1=O = 1 to 50 nM
CC(C)(Sc1ccc(C(=O)OCc2cnn(Cc3ccc4c(c3)C(C)(C)CCC4(C)C)c2)cc1)C(=O)O = 1 to 50 nM

Let us move to another entry and its EC50.
Gal-4 hPPARα (Homo sapiens, UniProt Q07869) data for Cc1ccc(Cn2cc(COC(=O)c3ccc(SC(C)(C)C(=O)O)cc3)nn2)cc1 ; its EC50: 1 to 50 nM
